Recorded IC50, one value per entry.
Molecular target: Recombinant wild type LRRK2 protein (Homo sapiens (Human), UniProt Q5S007)
Sequence (Q5S007 whole entry): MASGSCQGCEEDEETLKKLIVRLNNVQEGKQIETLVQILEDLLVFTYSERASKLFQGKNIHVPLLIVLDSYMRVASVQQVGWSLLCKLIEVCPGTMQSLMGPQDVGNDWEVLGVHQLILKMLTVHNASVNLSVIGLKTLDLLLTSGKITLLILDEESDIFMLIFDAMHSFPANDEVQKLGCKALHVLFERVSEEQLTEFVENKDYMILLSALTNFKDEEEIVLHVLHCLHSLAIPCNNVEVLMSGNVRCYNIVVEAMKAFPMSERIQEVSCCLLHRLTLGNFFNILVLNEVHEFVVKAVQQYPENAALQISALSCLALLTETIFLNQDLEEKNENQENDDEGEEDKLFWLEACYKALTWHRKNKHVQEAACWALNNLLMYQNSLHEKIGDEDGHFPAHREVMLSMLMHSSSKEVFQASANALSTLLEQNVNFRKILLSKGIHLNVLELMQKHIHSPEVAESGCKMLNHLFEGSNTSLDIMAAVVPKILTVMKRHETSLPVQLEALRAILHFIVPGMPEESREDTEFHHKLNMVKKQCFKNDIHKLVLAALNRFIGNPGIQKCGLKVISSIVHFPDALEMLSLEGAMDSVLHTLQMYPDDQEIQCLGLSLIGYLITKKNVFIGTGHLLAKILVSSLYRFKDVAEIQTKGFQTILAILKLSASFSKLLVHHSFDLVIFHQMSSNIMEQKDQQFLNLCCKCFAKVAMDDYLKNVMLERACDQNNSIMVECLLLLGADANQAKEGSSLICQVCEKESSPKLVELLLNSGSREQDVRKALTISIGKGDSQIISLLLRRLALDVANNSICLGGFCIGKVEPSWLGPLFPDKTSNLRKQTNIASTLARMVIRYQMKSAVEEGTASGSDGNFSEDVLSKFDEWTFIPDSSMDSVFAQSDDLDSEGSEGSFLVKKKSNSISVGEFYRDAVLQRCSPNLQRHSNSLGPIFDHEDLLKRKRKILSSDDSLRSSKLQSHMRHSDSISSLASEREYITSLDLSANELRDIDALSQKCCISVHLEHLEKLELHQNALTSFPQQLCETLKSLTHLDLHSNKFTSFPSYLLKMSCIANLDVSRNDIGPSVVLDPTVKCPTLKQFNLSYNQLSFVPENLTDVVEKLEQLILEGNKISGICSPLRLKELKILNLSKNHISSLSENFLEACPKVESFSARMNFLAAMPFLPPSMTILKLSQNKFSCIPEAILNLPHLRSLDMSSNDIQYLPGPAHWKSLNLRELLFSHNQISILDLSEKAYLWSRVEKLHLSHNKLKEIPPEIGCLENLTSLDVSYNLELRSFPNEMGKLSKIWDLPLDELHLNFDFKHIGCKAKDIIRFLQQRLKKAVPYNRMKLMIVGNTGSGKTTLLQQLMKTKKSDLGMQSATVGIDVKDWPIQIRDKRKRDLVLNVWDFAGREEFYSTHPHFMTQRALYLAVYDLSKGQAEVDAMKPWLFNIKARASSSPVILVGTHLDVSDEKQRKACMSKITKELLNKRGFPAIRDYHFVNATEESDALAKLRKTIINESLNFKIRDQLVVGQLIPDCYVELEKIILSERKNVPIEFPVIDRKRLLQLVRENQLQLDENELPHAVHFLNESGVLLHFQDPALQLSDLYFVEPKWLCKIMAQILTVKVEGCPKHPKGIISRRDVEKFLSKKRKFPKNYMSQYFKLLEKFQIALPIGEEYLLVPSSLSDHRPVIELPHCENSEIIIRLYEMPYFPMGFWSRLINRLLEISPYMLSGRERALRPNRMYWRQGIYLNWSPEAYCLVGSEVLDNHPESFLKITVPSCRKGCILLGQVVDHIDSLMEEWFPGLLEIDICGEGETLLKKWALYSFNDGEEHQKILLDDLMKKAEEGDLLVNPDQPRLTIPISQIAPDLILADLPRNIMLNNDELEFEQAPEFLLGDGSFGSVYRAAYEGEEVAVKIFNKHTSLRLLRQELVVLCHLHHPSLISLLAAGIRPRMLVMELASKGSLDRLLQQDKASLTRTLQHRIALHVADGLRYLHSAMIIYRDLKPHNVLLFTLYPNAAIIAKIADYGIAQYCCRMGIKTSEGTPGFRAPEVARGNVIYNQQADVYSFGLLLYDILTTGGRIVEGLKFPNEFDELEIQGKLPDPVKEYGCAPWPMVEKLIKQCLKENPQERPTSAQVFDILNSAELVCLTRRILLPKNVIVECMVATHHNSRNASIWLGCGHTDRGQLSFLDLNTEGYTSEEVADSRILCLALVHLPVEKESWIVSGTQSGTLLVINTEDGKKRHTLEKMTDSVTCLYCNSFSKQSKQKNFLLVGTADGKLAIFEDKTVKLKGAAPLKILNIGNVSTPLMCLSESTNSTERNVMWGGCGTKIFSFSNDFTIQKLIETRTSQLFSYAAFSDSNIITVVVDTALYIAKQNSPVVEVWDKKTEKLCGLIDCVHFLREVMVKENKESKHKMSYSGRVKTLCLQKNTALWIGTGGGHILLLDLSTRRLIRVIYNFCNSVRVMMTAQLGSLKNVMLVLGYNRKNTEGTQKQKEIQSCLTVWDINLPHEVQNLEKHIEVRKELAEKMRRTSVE
Assay: LRRK2 kinase activity, LanthaScreen TR-FRET assay (wild type)
Conditions: LRRKtide 400 nM, 25 μM ATP, 60 min; read-out: LRRK2 WT IC50

// below: answered compounds
Give the measured IC50 for N#Cc1cnc(C(=O)Nc2ccc3[nH]nc(-c4cnco4)c3c2)c(C2CC2)c1
100 to 1000 nM

Give the measured IC50 for Cc1c(C#N)nn(C)c1C(=O)Nc1ccc2[nH]nc(-c3cnco3)c2c1
< 100 nM

Give the measured IC50 for N#Cc1cccc(C(=O)Nc2ccc3[nH]nc(-c4cnn(C(F)F)c4)c3c2)c1F
< 100 nM

Give the measured IC50 for Cc1c(C#N)cnc(C(=O)Nc2ccc3[nH]nc(F)c3c2)c1C
1000 to 10000 nM

Give the measured IC50 for Cc1c(C#N)cnc(C(=O)Nc2ccc3[nH]nc(-c4cnn(C)c4)c3c2)c1C
< 100 nM

Give the measured IC50 for C/C=C/c1n[nH]c2ccc(NC(=O)c3nc(Cl)c(C#N)c(C)c3C)cc12
< 100 nM

Give the measured IC50 for Cc1cc(C#N)cnc1C(=O)Nc1cc2c(-c3ccoc3)n[nH]c2cn1
1000 to 10000 nM

Give the measured IC50 for Cc1ccc(-c2n[nH]c3ccc(NC(=O)c4ncc(C#N)cc4C)cc23)cc1C
100 to 1000 nM

Give the measured IC50 for Cc1c(C(=O)Nc2ccc3[nH]nc(-c4cnco4)c3c2)ncc(C#N)c1C(F)(F)F
< 100 nM

Give the measured IC50 for CC(C)=Cc1n[nH]c2ccc(NC(=O)c3ncc(C#N)c(C)c3C)cc12
100 to 1000 nM

New cases:
Give the measured IC50 for N#Cc1ccc(C(=O)Nc2ccc3[nH]nc(-c4ccoc4)c3c2)c(O)c1
100 to 1000 nM

Give the measured IC50 for Cc1ccc(-c2n[nH]c3ccc(NC(=O)c4ncc(C#N)cc4C)cc23)cc1F
100 to 1000 nM

Give the measured IC50 for Cc1c(C#N)cnc(C(=O)Nc2ccc3[nH]nc(/C=C4/CCOC4)c3c2)c1C
1000 to 10000 nM

Give the measured IC50 for Cc1cc(C#N)cnc1C(=O)Nc1ccc2[nH]nc(-c3cccc(P(C)(C)=O)c3)c2c1
100 to 1000 nM

Give the measured IC50 for Cc1cc(C#N)cnc1C(=O)Nc1ccc2[nH]nc(-c3coc(C#N)c3)c2c1
< 100 nM

Give the measured IC50 for Cc1ccc(C#N)nc1C(=O)Nc1ccc2[nH]nc(-c3ccoc3)c2c1
< 100 nM

Give the measured IC50 for N#Cc1cccc(C(=O)Nc2ccc3[nH]nc(-c4ccoc4)c3c2)c1Br
< 100 nM

Give the measured IC50 for Cc1c(C(=O)Nc2ccc3[nH]nc(-c4ccoc4)c3c2)noc1C#N
< 100 nM

Give the measured IC50 for Cc1c(C#N)noc1C(=O)Nc1ccc2[nH]nc(-c3ccoc3)c2c1
100 to 1000 nM

Give the measured IC50 for N#Cc1cnc(C(=O)Nc2ccc3[nH]nc(-c4cnco4)c3c2)c2c1CCC2
1000 to 10000 nM

Give the measured IC50 for N#Cc1ccc(C(=O)Nc2ccc3[nH]nc(-c4ccoc4)c3c2)nc1
100 to 1000 nM

Give the measured IC50 for CCc1cc(C#N)cnc1C(=O)Nc1ccc2[nH]nc(-c3ccoc3)c2c1
100 to 1000 nM

Give the measured IC50 for Cc1c(C(=O)Nc2ccc3[nH]nc(C(F)(F)F)c3c2)nc(Cl)c(C#N)c1C
< 100 nM

Give the measured IC50 for Cc1cc(C#N)cnc1C(=O)Nc1ccc2[nH]nc(-c3cscn3)c2c1
100 to 1000 nM

Give the measured IC50 for Cc1c(C#N)ccc(F)c1C(=O)Nc1ccc2[nH]nc(-c3ccoc3)c2c1
< 100 nM

Give the measured IC50 for N#Cc1cccc(C(=O)Nc2ccc3[nH]nc(-c4cnoc4)c3c2)c1Cl
< 100 nM

Give the measured IC50 for C/C=C/c1n[nH]c2ccc(NC(=O)c3ncc(C#N)c(C)c3C)cc12
100 to 1000 nM

Give the measured IC50 for COc1cncc(-c2n[nH]c3ccc(NC(=O)c4ncc(C#N)cc4C)cc23)c1
100 to 1000 nM

Give the measured IC50 for N#Cc1ncc(C(=O)Nc2ccc3[nH]nc(-c4ccoc4)c3c2)s1
100 to 1000 nM

Give the measured IC50 for Cc1cc(C#N)cnc1C(=O)Nc1ccc2[nH]nc(-c3cnco3)c2c1
100 to 1000 nM

Give the measured IC50 for Cc1cc(C#N)cnc1C(=O)Nc1ccc2[nH]nc(-c3cncc(N4CCOCC4)c3)c2c1
100 to 1000 nM

Give the measured IC50 for COc1c(C#N)cnc(C(=O)Nc2ccc3[nH]nc(-c4cnco4)c3c2)c1C
< 100 nM

Give the measured IC50 for Cc1c(C#N)cnc(C(=O)Nc2ccc3[nH]nc(-c4ncco4)c3c2)c1C
100 to 1000 nM

Give the measured IC50 for Cc1cc(C#N)cnc1C(=O)Nc1ccc2[nH]nc(-c3ccnc(C#N)c3)c2c1
100 to 1000 nM

Give the measured IC50 for Cc1c(C#N)cnc(C(=O)Nc2ccc3[nH]nc(C4CC4)c3c2)c1C
1000 to 10000 nM

---

Molecular target: Recombinant wild type LRRK2 protein (Homo sapiens (Human), UniProt Q5S007)
Assay: LRRK2 kinase activity, LanthaScreen TR-FRET assay (wild type)
Details: LRRKtide 400 nM, 25 μM ATP, 60 min; read-out: LRRK2 WT IC50
Recorded IC50, one value per entry.

// below: answered compounds
Give the measured IC50 for Cc1cc(C#N)cnc1C(=O)Nc1ccc2[nH]nc(-c3cccc(OC(F)(F)F)c3)c2c1
1000 to 10000 nM

Give the measured IC50 for Cc1cc(C#N)cnc1C(=O)Nc1ccc2[nH]nc(OCc3ccccc3)c2c1
100 to 1000 nM

Give the measured IC50 for Cc1c(Cl)c(C(=O)Nc2ccc3[nH]nc(C4CC4)c3c2)nc(Cl)c1C#N
< 100 nM

Give the measured IC50 for Cc1cc(C#N)ccc1C(=O)Nc1ccc2[nH]nc(-c3ccoc3)c2c1
< 100 nM

Give the measured IC50 for Cc1cc(C#N)cnc1C(=O)Nc1ccc2[nH]nc(-c3cncc(Cl)c3)c2c1
100 to 1000 nM

New cases:
Give the measured IC50 for Cc1ccc(C#N)c(C)c1C(=O)Nc1ccc2[nH]nc(-c3cnn(C(F)F)c3)c2c1
< 100 nM

Give the measured IC50 for Cc1oc(C#N)cc1C(=O)Nc1ccc2[nH]nc(-c3ccccc3)c2c1
100 to 1000 nM

Give the measured IC50 for COc1cc(-c2n[nH]c3ccc(NC(=O)c4ncc(C#N)cc4C(F)(F)F)cc23)ccn1
< 100 nM

Give the measured IC50 for Cc1cc(C#N)nnc1C(=O)Nc1ccc2[nH]nc(-c3ccoc3)c2c1
100 to 1000 nM

Give the measured IC50 for Cc1cc(C#N)cnc1C(=O)Nc1ccc2[nH]nc(-c3cncs3)c2c1
100 to 1000 nM

---

Biological target: Recombinant wild type LRRK2 protein (Homo sapiens (Human))
Experiment: LRRK2 kinase activity, LanthaScreen TR-FRET assay (wild type)
Conditions: LRRKtide 400 nM, 25 μM ATP, 60 min; read-out: LRRK2 WT IC50
measuredQuantity: IC50

Specify the recorded IC50 for Cc1cc(C#N)cnc1C(=O)Nc1ccc2[nH]nc(I)c2c1 , system: Recombinant wild type LRRK2 protein (Homo sapiens (Human)).
100 to 1000 nM

Specify the recorded IC50 for N#Cc1ccc(C(=O)Nc2ccc3[nH]nc(-c4ccoc4)c3c2)c(I)c1 , system: Recombinant wild type LRRK2 protein (Homo sapiens (Human)).
< 100 nM

Specify the recorded IC50 for Cc1c(C#N)cnc(C(=O)Nc2ccc3[nH]nc(-c4ccn(C)c4)c3c2)c1C , system: Recombinant wild type LRRK2 protein (Homo sapiens (Human)).
< 100 nM

Specify the recorded IC50 for Cc1ccc(-c2n[nH]c3ccc(NC(=O)c4ncc(C#N)cc4C)cc23)o1 , system: Recombinant wild type LRRK2 protein (Homo sapiens (Human)).
< 100 nM

In the following, a different compound is considered.
Specify the recorded IC50 for Cc1cc(C#N)cnc1C(=O)Nc1ccc2[nH]nc(-c3cnn(C)c3)c2c1 , system: Recombinant wild type LRRK2 protein (Homo sapiens (Human)).
< 100 nM

---

Target: Recombinant wild type LRRK2 protein (Homo sapiens (Human), UniProt Q5S007)
Experiment: LRRK2 kinase activity, LanthaScreen TR-FRET assay (wild type)
Details: LRRKtide 400 nM, 25 μM ATP, 60 min; read-out: LRRK2 WT IC50
Recorded IC50, one value per entry.

Give the measured IC50 for Cc1cc(C#N)cnc1C(=O)Nc1ccc2[nH]nc(-c3ccn(C)n3)c2c1
1000 to 10000 nM

Give the measured IC50 for Cc1c(C#N)cn(C)c1C(=O)Nc1ccc2[nH]nc(-c3cnoc3)c2c1
< 100 nM

Give the measured IC50 for COc1n[nH]c2ccc(NC(=O)c3nc(Br)c(C#N)c(C)c3C)cc12
< 100 nM

Give the measured IC50 for N#Cc1cccc(C(=O)Nc2ccc3[nH]nc(-c4ccoc4)c3c2)c1Cl
< 100 nM

Give the measured IC50 for COc1ccc(-c2n[nH]c3ccc(NC(=O)c4ncc(C#N)cc4C)cc23)cn1
100 to 1000 nM

New cases:
Give the measured IC50 for Cc1c(C#N)cnc(C(=O)Nc2ccc3[nH]nc(C=C4CCC4)c3c2)c1C
100 to 1000 nM

Give the measured IC50 for Cc1cc(C#N)cnc1C(=O)Nc1ccc2[nH]nc(-c3cccc(S(C)(=O)=O)c3)c2c1
< 100 nM

Give the measured IC50 for Cc1cc(C#N)cnc1C(=O)Nc1ccc2[nH]nc(-c3ccnc(N4C[C@@H](C)O[C@@H](C)C4)c3)c2c1
< 100 nM

Give the measured IC50 for Cc1cc(C#N)cnc1C(=O)Nc1ccc2[nH]nc(NC(=O)c3ccccc3)c2c1
1000 to 10000 nM

Recorded values, source patent US11427558B1.
